Test system: rainbow trout
ASSAY PROTOCOL: In vivo bioconcentration experiment with a mixture of anionic surfactants, flow-through aquaria, 10 °C, pH 7.8
CONDITIONS USED: own values
PROPERTY LABEL: BCF (L kg^–1)

COMPOUND	TESTED TARGET	BCF [L kg^–1]
CCCCCCCCCCCOS(=O)(=O)O [C11SO4, undecylsulfate]	rainbow trout	0.77
CCCCC(CC)COC(=O)CC(C(=O)OCC(CC)CCCC)S(=O)(=O)O (stereo not shown) [DOSS, bis(2-ethylhexyl)sulfosuccinate]	rainbow trout	1.42

[P] CCCCCCCCCCCCCOS(=O)(=O)O [C13SO4, tridecylsulfate]
[Q] CCCCCCCCCCc1ccc(S(=O)(=O)O)cc1 [C10-1-LAS, 1-n-(p-sulfophenyl)decane]
Which is greater in BCF, the first item P or the second item Q ? Pick one; state its label.
P
(P: 34 L kg^–1, Q: 16.3 L kg^–1)

====

ASSAY PROTOCOL: RT-S9 substrate depletion assay, individual compounds, with IVIVE
CONDITIONS USED: s9
PROPERTY LABEL: CLint,S9 (mL h-1 mg protein-1)

Reference set (5 entries):
COMPOUND	QUANTITY UNIT	RECORDED MEASUREMENT
CCCCCCCCCCS(=O)(=O)O [C10SO3, decylsulfonate]	mL h-1 mg protein-1	4.54
CCCCCCCCCCCCOCCOCCOCCOCCOS(=O)(=O)O [C12-EO4-SO4, dodecyltetraethoxysulfate]	mL h-1 mg protein-1	1.30
CCCCC(CC)COC(=O)CC(C(=O)OCC(CC)CCCC)S(=O)(=O)O (stereo not shown) [DOSS, bis(2-ethylhexyl)sulfosuccinate]	mL h-1 mg protein-1	0.14
CCCCCCCCCCCCCOS(=O)(=O)O [C13SO4, tridecylsulfate]	mL h-1 mg protein-1	0.40
CCCCCCCCCCCS(=O)(=O)O [C11SO3, undecylsulfonate]	mL h-1 mg protein-1	3.05

[1] CCCCCCCCCCc1ccc(S(=O)(=O)O)cc1
[2] CCCCCCCCCCCOS(=O)(=O)O [C11SO4, undecylsulfate]
I would appreciate it if you could say which entry, 1 or 2 , has the lower CLint,S9 value. Pick one; state its label.
1

====

System: rainbow trout
ASSAY PROTOCOL: In vivo bioconcentration experiment with a mixture of anionic surfactants, flow-through aquaria, 10 °C, pH 7.8
CONDITIONS USED: measured concentrations in water, simpler estimation method (Text S3); 95% confidence intervals in brackets
PROPERTY LABEL: BCF

COMPOUND	BCF
CCCCCCCCCCCCCOS(=O)(=O)O [C13SO4, tridecylsulfate]	31 (16) L kg-1 ww
CCCCCCCCCCCOS(=O)(=O)O [C11SO4, undecylsulfate]	0.74 (33) L kg-1 ww
CCCCCCCCCCCCCCCCS(=O)(=O)O [C16SO3, hexadecylsulfonate]	1480 (14) L kg-1 ww
CCCCCCCCCCCCCS(=O)(=O)O [C13SO3, tridecylsulfonate]	4.3 (12) L kg-1 ww
CCCCC(CC)COC(=O)CC(C(=O)OCC(CC)CCCC)S(=O)(=O)O (centres unmarked) [DOSS, bis(2-ethylhexyl)sulfosuccinate]	1.37 (14) L kg-1 ww
CCCCCCCCCCc1ccc(S(=O)(=O)O)cc1	14.7 (8) L kg-1 ww

Record CCCCCCCCCCCCOCCOCCOCCOCCOS(=O)(=O)O [C12-EO4-SO4, dodecyltetraethoxysulfate] , field BCF: 0.92 (29) L kg-1 ww

Record CCCCCCCCCCCCCCS(=O)(=O)O [C14SO3, tetradecylsulfonate] , field BCF: 28 (8) L kg-1 ww
